Assay: HUVEC growth inhibition – cell-based, human, primary screen (AID 575)
Conditions: HUVEC proliferation, CellTiter-Glo luminescence, 72 h; at 10 µM
Calls of active or inactive are those of the source.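 Rule for the calls: active = viability at or below 30% in both replicate assays; inconclusive = viability at or below 30% in just one of the two assays; inactive = the rest.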
Field 'call' accepts active, inactive

Some solved entries appear below for comparison.
| MOLECULE | ASSIGNED CATEGORY |
| --- | --- |
| N#C/C(C(=O)N1CCOCC1)=C1/SC=C(c2ccccc2)N1c1ccccc1 | inactive |
| COc1ccccc1N(CC(=O)Nc1cccnc1)S(C)(=O)=O | inactive |
| Cc1ccc(C)c(N2CCN(CCCNC(=O)Cn3cc4c(n3)CCCCC4)CC2)c1 | active |
| CCC(C)OC(=O)C1=C(C)NC2=C(C(=O)C(C(=O)OC)C(C)C2)C1c1ccc(N(C)C)cc1 (stereo unspecified) | inactive |
| O=C(Nc1ccc2c(c1)OCO2)c1ccc(CN2CCOCC2)cc1 | inactive |

Query: How did this test come out for "CCCc1nnc2n1N=C(c1ccc(-c3cc(Cl)ccc3Cl)o1)CS2" ?
Reply: inactive

Query: Test call for this molecule, please: "CCOC(=O)c1cc2c(=O)n3ccccc3nc2n(CC(C)C)c1=NC(=O)c1ccco1"
Reply: inactive

Query: Hi, do you know how CC1=C(C(=O)Nc2cccnc2)C(c2ccc(C(C)C)cc2)n2ncnc2N1 (stereo unspecified) came out in this test?
Reply: inactive

Query: Please state the recorded outcome for this molecule: "CCc1cc2c(NCCC(=O)O)ncnc2s1"
Reply: inactive

Query: What did this assay record as the result for O=C(Nn1cnnc1)C1Cc2ccccc2CN1S(=O)(=O)c1ccc(F)cc1 (stereo unspecified) ?
Reply: inactive

Query: For "CCN(CC)C(=O)Cn1ncc2c1-c1ccccc1OC2" , what call appears in the results of this test?
Reply: inactive

Reference source for all entries: PubChem BioAssay
